- study-system: Cholinesterase (Homo sapiens, UniProt P06276)
- Sequence (P06276 whole entry): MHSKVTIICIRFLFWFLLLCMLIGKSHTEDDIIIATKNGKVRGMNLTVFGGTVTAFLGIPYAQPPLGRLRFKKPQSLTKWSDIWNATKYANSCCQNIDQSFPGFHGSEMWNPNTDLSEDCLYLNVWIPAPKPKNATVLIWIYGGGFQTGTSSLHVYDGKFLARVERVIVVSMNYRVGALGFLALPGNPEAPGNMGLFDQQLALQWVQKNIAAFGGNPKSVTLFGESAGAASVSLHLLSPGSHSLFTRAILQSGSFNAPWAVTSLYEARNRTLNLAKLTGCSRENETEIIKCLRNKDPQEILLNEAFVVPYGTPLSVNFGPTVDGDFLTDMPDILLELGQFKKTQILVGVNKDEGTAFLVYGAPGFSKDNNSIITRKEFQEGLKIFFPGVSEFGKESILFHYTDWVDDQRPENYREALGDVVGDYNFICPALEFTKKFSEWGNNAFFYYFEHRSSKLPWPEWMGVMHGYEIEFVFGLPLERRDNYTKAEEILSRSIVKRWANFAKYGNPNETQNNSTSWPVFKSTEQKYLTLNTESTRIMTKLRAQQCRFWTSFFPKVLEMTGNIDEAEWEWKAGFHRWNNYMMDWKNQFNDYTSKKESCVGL
- procedure-summary: Inhibition of human serum BChE using butyrylthiocholine chloride as substrate incubated for 15 mins by Ellman's method
pIC50: −log10 of the molar value.
quantity-kind: pIC50

>>> print(df.to_string())
                           molecular_string  quantity_kind  obs_value
0    C#CCN(CCCN1C(=O)c2ccccc2C1=O)Cc1ccccc1          pIC50       5.42
1    CCN(CCCN1C(=O)c2ccccc2C1=O)Cc1ccccc1OC          pIC50       4.84
2   CCN(CCCCN1C(=O)c2ccccc2C1=O)Cc1ccccc1OC          pIC50       4.89
3   CCN(CCCCCCN1C(=O)c2ccccc2C1=O)Cc1ccccc1          pIC50       4.80
4                   C#CCN[C@@H]1CCc2ccccc21          pIC50       5.32
5  CCN(CCCCCCN1C(=O)c2ccccc2C1=O)Cc1ccccc1OC          pIC50       5.05
6     CCN(CCCCN1C(=O)c2ccccc2C1=O)Cc1ccccc1          pIC50       4.82
